# experiment: NCI Yeast Anticancer Drug Screen. Data for the CLN2oe strain (AID 163);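 further: 0% = growth of vehicle-only control cultures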
# particulars: S. cerevisiae CLN2oe strain, at 11.0 µM, hits give high values
The panel holds about 79,000 compounds, 15% with a hit somewhere; the sample as a whole holds those more often.
recorded-endpoint: growth inhibition (%)

compound	value-reported
O=C(N/N=C\c1c(Cl)cccc1Cl)N/N=C/c1c(Cl)cccc1Cl	-21
COc1cc2c(cc1C[N+](C)(C)CSc1ccccc1)-c1ccccc1CC2	70
O=C(O)c1[nH]c(=O)c2ccccc2c1Nc1ccccc1	-2
Cc1ccc2c(ccc(/C=C/c3ccc(O)c4ncccc34)[n+]2C)c1	78
Cc1onc(-c2ccccc2Cl)c1C1=N/C(=C/c2cc(Cl)cc(Cl)c2O)C(=O)O1	-5
CCOP1(=O)C=C(Sc2ccc([N+](=O)[O-])cc2[N+](=O)[O-])C(C)(C)O1 (centres undefined)	1
CCOC(=O)C(NC(=O)CC)(N1CCN(c2cc3c(cc2F)c(=O)c(C(=O)O)cn3C2CC2)CC1)C(F)(F)F (centres undefined)	-3
COc1ccc2c(c1)[nH]c1c(/C=C/c3ccccc3)nccc12	-38
OCCN(CCO)c1ccc2c(c1)Cc1ccccc1-2	-16
CCOC(=O)C1=C(C)NC(C)=C(C(=O)OCC)C1c1ccc(C)cc1	33
O=C(/C=N/O)Nc1cc(Cl)c(Cl)cc1Cl	1
COc1cc(N(C)C)ccc1/C=C\c1ccnc2ccccc12	-18
CCCCCC(=O)c1ccc(O)cc1O	1
Cn1ncc2cc3c(Nc4ccc(Cl)cc4)cccc3nc21	-5
O=C1C=CC(=O)N1c1ccc(N2C(=O)C=CC2=O)cc1	99
c1ccc2c(c1)ccc1c3ccncc3ccc21	93
CCC(=O)Oc1ccc(/C=N/NC(N)=S)nc1	-11
O=C(/C=C\c1ccc([N+](=O)[O-])o1)Nc1ccc(Cl)cc1	73
N#C/C(=C1C=C/C(=N/O)c2ccccc2/1)c1ccccc1	-6
NC(N)=N/N=C/c1cc(Cl)cc(Cl)c1O	21
N#CC(=C1C=CC(=NO)C=C1)c1ccccc1	97
CCOC(=O)CNC(=O)c1[nH]cnc1/N=N/N(C)C	17
CC(C)c1[nH]nc(C(N)=O)c1N=NN(C)C	-2
Nc1nc(N)c2cc(Sc3ccc4ccccc4c3)ccc2n1	50

====

# experiment: NCI Yeast Anticancer Drug Screen. Data for the mlh1 strain (AID 171);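 further: 0% = growth of vehicle-treated control cultures of the same strain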
# particulars: S. cerevisiae mlh1 strain growth inhibition; at 1.2 µM; hits give high values
The panel holds about 79,000 compounds, 15% with a hit somewhere; the sample as a whole holds those more often.
Overview of reported growth inhibition across a group of compounds:
recorded-endpoint: growth inhibition (%)

compound	value-reported
CCc1[nH]nc(C(N)=O)c1N=NN(C)C	4
C=C1N(C)c2ccc(Cl)cc2C1(C)C	-45
Oc1ccc(Br)cc1C=NC1CCCCC1	-6
CN(Cc1cnc2nc(N)nc(N)c2n1)c1ccc(C(=O)NC(CCC(=O)O)C(=O)O)c2ccccc12 (stereo not drawn)	17
CCOP1(=O)C=C(Sc2ccc([N+](=O)[O-])cc2[N+](=O)[O-])C(C)(C)O1 (stereo not drawn)	3
Cc1nc2c(ncn2CCO)c(=O)[nH]1	-16
OB(O)c1ccccc1C#Cc1ccccc1B(O)O	1
CNc1nc(C)nc2c1cnn2-c1ccc([N+](=O)[O-])cc1	-5
N#CSC1CCCCNC1=O (stereo not drawn)	7
CCCCCCCCCCCCCC(=O)OC(C)CCC1CCCO1 (stereo not drawn)	-1
NCc1c(O)ccc2ccccc12	-10
O=c1[nH]c2ccccc2c2nc3ccccc3n12	-40
Oc1ccc(C=Nc2ccccc2O)cc1	32
